experiment: Metabolic stability, half-life and clearance in human hepatocytes; format: in vitro ADME; conditions: Human hepatocytes
measurement-label: half-life (h)
Express it in h; write the number only.

Request: // query half-life value for entry COc1ccc(C(=O)CC2(O)C(=O)Nc3c(Cl)ccc(Cl)c32)cc1 (racemic)
Result: 3.77

----------
experiment: Pharmacokinetics after IV and oral administration; assay type: in vivo; details: plasma, po, 100 mg/kg, 100 mg/kg po, labrasol/tetraglycol; BALB/c mice or Sprague Dawley rats
measurement-label: bioavailability
Returns: string containing the number followed by the unit.

Request: // query bioavailability value for entry O=C(CC1(O)C(=O)Nc2c(Cl)ccc(Cl)c21)c1ccc(C2CC2)cc1 (single isomer, unassigned) [Cmpd 14]
Result: 100%

The origin of these recorded values is patent US9895352B2.
